Here the recorded viability at 25 µM is given for each entry.
- Tested on: A549
- Protocol: Induction of apoptosis in human A549 cells assessed as viable cells at 25 uM after 48 hrs by Annexin V-FITC/propidium iodide staining based flow cytometry (reference value: 98.2 %)
- Type: functional
- Condition details: A549, 48 h, read-out: Activity
Readout kind: viability at 25 µM (%)

Molecule	Readout kind	Observed measurement
Cc1c(OCC(=O)N2CC(C)OC(C)C2)ccc2c(=O)c3ccc(OCC(=O)N4CC(C)OC(C)C4)cc3oc12 (stereo not drawn)	viability at 25 µM	98.3
Cc1c(OCC(=O)N2CC(C)CC(C)C2)ccc2c(=O)c3ccc(OCC(=O)N4CC(C)CC(C)C4)cc3oc12 (stereo not drawn)	viability at 25 µM	49
Cc1c(OCC(=O)N2CCOCC2)ccc2c(=O)c3ccc(OCC(=O)N4CCOCC4)cc3oc12	viability at 25 µM	98.7

----------
- System: A549
- Protocol: Induction of apoptosis in human A549 cells assessed as viable cells at 25 uM after 48 hrs by Annexin V-FITC/propidium iodide staining based flow cytometry (reference value: 98.2 %)
- Assay type: functional
- Condition details: A549, 48 h, read-out: Activity
Here the recorded viability at 25 µM is given for each entry.

Compound	Tested on	viability at 25 µM (%)
Cc1c(OCC(=O)N2CCN(C)CC2)ccc2c(=O)c3ccc(OCC(=O)N4CCN(C)CC4)cc3oc12	A549	95.6
Cc1c(OCC(=O)NC2CCCCC2C)ccc2c(=O)c3ccc(OCC(=O)NC4CCCCC4C)cc3oc12 (centres undefined)	A549	93.6
CC1CCCC(C)N1C(=O)COc1ccc2c(=O)c3ccc(OCC(=O)N4C(C)CCCC4C)cc3oc2c1 (centres undefined)	A549	87.7
Cc1c(OCC(=O)N2C(C)CCCC2C)ccc2c(=O)c3ccc(OCC(=O)N4C(C)CCCC4C)cc3oc12 (centres undefined)	A549	80.7
CCOC(=O)N1CCN(C(=O)COc2ccc3c(=O)c4ccc(OCC(=O)N5CCN(C(=O)OCC)CC5)c(C)c4oc3c2)CC1	A549	97.1
O=C(COc1ccc2c(=O)c3ccc(OCC(=O)NCC4CCCO4)cc3oc2c1)NCC1CCCO1 (centres undefined)	A549	96.5
O=C(COc1ccc2c(=O)c3ccc(OCC(=O)N4CCOCC4)cc3oc2c1)N1CCOCC1	A549	97.9
CN1CCN(C(=O)COc2ccc3c(=O)c4ccc(OCC(=O)N5CCN(C)CC5)cc4oc3c2)CC1	A549	94.1
Cc1c(OCC(=O)NCC2CCCO2)ccc2c(=O)c3ccc(OCC(=O)NCC4CCCO4)cc3oc12 (centres undefined)	A549	95.4
